Origin of values: PubChem BioAssay (NCI)

Test system: K-562 leukemia
Test: NCI-60 one-dose screen, 48 h (100 = growth as untreated, 0 = no growth, -100 = all killed)
Conditions: 10 µM
About 83,000 compounds went through this panel and 20% of them were active in at least one assay; those are over-represented in the sample as a whole.
Experimental endpoint: growth (%)
Answer in %, number only, no unit symbol.

Compound	System under test	Experimental endpoint	Reported value
CCOC(=O)N/N=C\C(C)=N\NC(=O)OCC	K-562 leukemia	growth	98.7
O=C(Nc1cccc(-n2cc(-c3ccncc3)c(-c3ccc(O)c(Cl)c3)n2)c1)Nc1cccc(C(F)(F)F)c1	K-562 leukemia	growth	2.72
Oc1[nH]c2cc(Cl)ccc2c1/C=c1/ccc2c(c1)N=C(c1cc(F)cc(F)c1)N=2	K-562 leukemia	growth	10.3
Cc1cc(Nc2ccc(Cl)cc2)nc(NCCCNc2ccnc3cc(Cl)ccc23)n1	K-562 leukemia	growth	-53.8
Cc1ccc(Nc2cc(C)nc(NCCCNc3ccnc4cc(Cl)ccc34)n2)cc1	K-562 leukemia	growth	-55

Could you share which growth value was measured for O=C1/C(=C\c2ccccc2)CN(C(=O)c2ccccc2F)C/C1=C\c1ccccc1 ?
0.045

Same again, this time with CC/C(C)=C(\C)C(=O)O
100

Same again, this time with O=C1ON=[N+](c2ccc(Cc3ccc([N+]4=NOC(=O)C4CN4CCOCC4)cc3)cc2)C1CN1CCOCC1 (stereo not given)
26.4

Same again, this time with Cn1c([N+](=O)[O-])cnc1/C=C1\Oc2ccc(Cl)cc2C1=O
1.86

Same again, this time with CC(=O)O[C@]1(C)CC[C@H]2[C@H](CNCCc3ccc(Cl)cc3)C(=O)O[C@@H]2C2=C(C)C(=O)C[C@H]21
79.4

Same again, this time with CCN(CC)CCC(CNc1c(C)cnc2cc(Cl)ccc12)c1ccc(Cl)c(Cl)c1 (stereo not given)
1.52

Same again, this time with O=C(Nc1nc2ccc(F)cc2s1)c1cc(-c2ccc(F)cc2)n2nc(-c3ccccc3)cc2n1
99.9

Same again, this time with CC(=O)c1nc2ccccc2n1CCNC(N)=O
44.1

* * *

Tested on: MDA-MB-231 breast
Assay: NCI-60 one-dose screen, 48 h
Settings: 10 µM
About 83,000 compounds went through this panel and 20% of them were active in at least one assay; those are over-represented in the sample as a whole. Calls of active or inactive are those of the source. The calls were made as follows: active = growth percent below 10; inactive = the rest.
API: response.call in active, inactive

Compound	Qualitative label
N#CCCN1C/C(=C/c2ccccc2)C(=O)/C(=C/c2ccccc2)C1	inactive
O=C1/C(=C\c2cn(C(=O)c3ccc(Cl)cc3)c3ccccc23)c2ccccc2N1C(=O)c1ccc(Cl)cc1	inactive
c1ccc2c(c1)oc1c3cccnc3ccc21	inactive
O=C(O)CN1C(=O)c2cccc3cccc(c23)C1=O	inactive
FC(F)(F)c1ccc(-c2cnc(Cl)nc2N2CCC3(CC2)OCCO3)cc1	inactive
COc1cc(C2CC(c3ccc(Nc4ccnc5cc(Cl)ccc45)cc3)=NN2c2ccc(Cl)cc2)cc(OC)c1OC (stereo not drawn)	inactive

Now consider the entry below.
Dear all, I need the recorded test outcome for O=S(=O)(NCCCNc1nccc(-c2c(-c3ccc(F)cc3)nc3sccn23)n1)c1ccc2ccccc2c1 , thank you.
inactive

* * *

System: SK-MEL-5 melanoma
Test: NCI-60 one-dose screen, 48 h (100 = growth as untreated, 0 = no growth, -100 = all killed)
Conditions: 10 µM
This is part of a sample that, as a whole, favours compounds with a hit. Of some 83,000 tested, about 20% had one in any assay.
Experimental endpoint: growth (%)
Answer in %, number only, no unit symbol.

Compound	Experimental endpoint	Reported value
O=C(O)CN1C(=O)c2cccc3cccc(c23)C1=O	growth	106

Could you share which growth value was measured for CCCCCCNC(=O)Oc1ccc(/C(=C(/CC)Cc2ccccc2)c2ccc(OCCN3CCCCC3)cc2)cc1 ?
84.5

Same again, this time with COc1ccccc1/C=C/C(=O)c1ccccc1
82.1

Same again, this time with O=C(C[P+](c1ccccc1)(c1ccccc1)c1ccccc1)C[P+](c1ccccc1)(c1ccccc1)c1ccccc1
-88.9

Same again, this time with c1ccc2c(c1)oc1c3cccnc3ccc21
96.7

Same again, this time with Nc1ccn(C2CC(O)C(CO)O2)c(=O)n1 (stereo not given)
105

Same again, this time with CNc1ccc(CSc2ccc(C)cc2)cc1
67.7
